Catalogue of IC50 readings, one per entry.
# Test target: HO-2 (rat brain) (Rattus norvegicus, UniProt P23711)
# Construct: brain microsomes were used as a source of HO-2; from tissue; host or cells: brain microsomal fraction of adult male Sprague-Dawley rats
# Sequence (P23711 whole entry): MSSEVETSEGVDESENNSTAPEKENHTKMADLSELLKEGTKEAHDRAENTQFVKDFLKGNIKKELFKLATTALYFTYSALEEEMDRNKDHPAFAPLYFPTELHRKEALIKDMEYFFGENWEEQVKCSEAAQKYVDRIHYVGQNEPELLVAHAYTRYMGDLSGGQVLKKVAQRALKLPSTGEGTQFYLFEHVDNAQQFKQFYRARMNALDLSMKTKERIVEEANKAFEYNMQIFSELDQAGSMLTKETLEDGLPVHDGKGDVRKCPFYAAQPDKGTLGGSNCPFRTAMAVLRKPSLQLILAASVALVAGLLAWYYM
# Method summary: HO enzymatic activity, rat brain microsomal fraction (CO formation from methemalbumin)
# Type: biochemical
# Test context: CO formation from methemalbumin, mean ± SD of replicate experiments, read-out: IC50 HO-2 (rat brain)/μM)
Counter-ions that a name gives are not always drawn.

Worked examples, 3 compounds total:
CC(=O)NCCc1c[nH]cn1 [QC-138, N-[2-(1H-Imidazol-4-yl)-ethyl]-acetamide] ... > 100 µM
OC(Cn1cncn1)(Cn1cncn1)c1ccc(F)cc1F [QC-90, Fluconazole, reference compound] ... > 100 µM
COc1ccc(OC[C@H]2CO[C@](CCc3ccc(Cl)cc3)(Cn3ccnc3)O2)cc1 [QC-8, hydrochloride] ... 29 µM

Data request, read-out IC50, for COC(=O)c1cn(CC(=O)CCc2ccccc2)cn1 > 100 µM

Which measured IC50 value corresponds to O=C(NCCCn1ccnc1)c1ccccc1 [QC-109, N-(3-Imidazol-1-yl-propyl)-benzamide] ? > 100 µM

Suppose we examine the compound Cc1ncc[nH]1 [QC-45, 2-methylimidazole, reference compound] ; what IC50 value has been reported? > 100 µM

Quick one: IC50 for O=C(CBr)CCc1ccc(Br)cc1 ? 125 µM

Consider the compound CCCC(=O)n1ccnc1 and give its measured IC50. > 100 µM
